Parameter pIC50: see the listing below.
- Target Or Test System: H. sapiens SLC2A9 variant 2 (GLUT9B) (Homo sapiens, UniProt Q9NRM0)
- Sequence (Q9NRM0 1-511 isoform Q9NRM0-2): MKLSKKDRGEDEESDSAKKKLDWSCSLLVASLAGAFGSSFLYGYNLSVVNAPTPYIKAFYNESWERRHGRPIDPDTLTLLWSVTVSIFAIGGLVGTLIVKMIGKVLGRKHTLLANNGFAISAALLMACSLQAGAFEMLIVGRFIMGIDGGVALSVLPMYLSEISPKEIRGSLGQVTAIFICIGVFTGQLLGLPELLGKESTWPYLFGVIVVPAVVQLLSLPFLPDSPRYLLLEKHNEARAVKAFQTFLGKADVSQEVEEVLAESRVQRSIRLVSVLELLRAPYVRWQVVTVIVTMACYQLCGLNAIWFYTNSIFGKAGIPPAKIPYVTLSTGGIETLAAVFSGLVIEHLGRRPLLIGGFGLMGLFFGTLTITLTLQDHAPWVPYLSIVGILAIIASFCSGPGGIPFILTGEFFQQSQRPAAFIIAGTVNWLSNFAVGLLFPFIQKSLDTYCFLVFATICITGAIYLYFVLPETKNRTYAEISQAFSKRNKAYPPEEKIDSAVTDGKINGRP
- Experimental Protocol: GLUT9 functional assay: uric acid uptake in HEK293T cells, allantoin formation by MS/MS as proxy of GLUT9B inhibition
- Type: cell-based
- Cond: 15 minute assay; HEK293T cells stably expressing GLUT9B and transiently A. oryzae uricase; uric acid 0.3 mM, 37° C.; read-out: 15 min IC50
pIC50: −log10 of the molar value.

{"columns": ["Molecule", "pIC50"],
 "data": [
  ["CCCCc1cnc(-c2ccc(OC)cc2)c(N2CCc3c(C(=O)O)csc3C2)n1 [Compound 41]", "5.70 to 6.30"],
  ["COCCCc1cnc(-c2ccc3c(c2)OCO3)c(N2CCC(O)(C(=O)O)CC2)n1 [Compound 171]", "< 5.70"],
  ["O=C(O)C1(O)CCN(c2nc(CCCC(F)(F)F)cnc2-c2ccc3c(c2)OCO3)CC1 [Compound 166]", "5.70 to 6.30"]
]}
